Cited source for all entries: the supplement of paper PMC12494721

# Test system: Ruminococcus gnavus DSM 108212
# measurement notes: fold change of Tryptamine concentration vs plate DMSO controls (fold change (ratio)); higher = more amine produced, active = hit call of the paper (significant change in both replicates, either direction)
# setup conditions: incubation time: 27 h, anaerobic, 37 °C
Structures can show the parent of a compound that is named as a salt.
property label: fold change of Tryptamine concentration

| compound | endpoint value |
| --- | --- |
| O=C(O)c1cc(-c2ccc(F)cc2F)ccc1O [Diflunisal] (20 µM) | 1.02 |
| O=P(O)(O)C(Cl)(Cl)P(=O)(O)O [Clodronate disodium] (20 µM) | 0.999 |
| CC(=O)OCC(=O)[C@@]1(O)[C@H](C)C[C@H]2[C@@H]3CCC4=CC(=O)C=C[C@]4(C)[C@@]3(F)[C@@H](O)C[C@@]21C [Dexamethasone acetate] (20 µM) | 1.01 |
| O=C(COc1ccc(Cl)cc1)N1CCN(Cc2ccc3c(c2)OCO3)CC1 [Fipexide hydrochloride] (20 µM) | 0.945 |
| COC(=O)[C@H](Cc1ccccc1)NC(=O)[C@H](CC(=O)O)NCCC(C)(C)C [Neotame] (50 µM) | 1.01 |
| CCC[C@@H]1C[C@@H](C(=O)N[C@@H]([C@H]2O[C@H](SC)[C@H](OP(=O)(O)O)[C@@H](O)[C@H]2O)[C@H](C)Cl)N(C)C1 [Clindamycin Phosphate] (20 µM) | 0.844 |
| O=C(O)Cc1ccc(-c2ccccc2)cc1 [Felbinac] (20 µM) | 1.01 |

* * *

Below: a set of entries, each annotated with reported growth.
# Tested on: Clostridium sporogenes DSM 1664
# measurement notes: growth (OD595) fold change vs plate DMSO controls (fold change (ratio)); higher = more growth
# setup conditions: incubation time: 27 h, anaerobic, 37 °C
Counter-ions that a name gives are not always drawn.

| molecule | tested target | growth |
| --- | --- | --- |
| Cc1ccc(C(=O)c2cc(O)c(O)c([N+](=O)[O-])c2)cc1 [Tolcapone] (20 µM) | Clostridium sporogenes DSM 1664 | 1.11 |
| CN[C@@H]1[C@H](O[C@H]2[C@H](O[C@H]3[C@H](O)[C@@H](O)[C@H](N=C(N)N)[C@@H](O)[C@@H]3N=C(N)N)O[C@@H](C)[C@]2(O)C=O)O[C@@H](CO)[C@H](O)[C@H]1O [Streptomycin sulfate] (20 µM) | Clostridium sporogenes DSM 1664 | 0.95 |
| CCCCCCCCc1c(CC)nc2ncnn2c1N (20 µM) | Clostridium sporogenes DSM 1664 | 1.11 |
| Cn1c(=O)c2[nH]cnc2n(C)c1=O [Aminophylline] (20 µM) | Clostridium sporogenes DSM 1664 | 0.81 |
| CC(C(=O)O)c1ccc(N2Cc3ccccc3C2=O)cc1 (stereo not drawn) [Indoprofen] (20 µM) | Clostridium sporogenes DSM 1664 | 1.13 |
| OC[C@@H](O)[C@@H](O)[C@H](O)[C@H](O)CO [Mannitol] (50 µM) | Clostridium sporogenes DSM 1664 | 1.02 |
| Cc1ncc([N+](=O)[O-])n1C [Dimetridazole] (20 µM) | Clostridium sporogenes DSM 1664 | 0.0144 |
| C[C@H](CCC(=O)O)[C@H]1CC[C@H]2[C@@H]3CC[C@@H]4C[C@H](O)CC[C@]4(C)[C@H]3CC[C@]12C [Lithocholic acid] (20 µM) | Clostridium sporogenes DSM 1664 | 1.13 |

* * *

# Tested on: Clostridium sporogenes DSM 1664
# measurement notes: fold change of Tryptamine concentration vs plate DMSO controls (fold change (ratio)); higher = more amine produced, active = hit call of the paper (significant change in both replicates, either direction)
# setup conditions: incubation time: 27 h, anaerobic, 37 °C
Counter-ions that a name gives are not always drawn.
property label: fold change of Tryptamine concentration

| compound | endpoint value |
| --- | --- |
| C#C[C@]1(OC(C)=O)CC[C@H]2[C@@H]3CCC4=C[C@@H](OC(C)=O)CC[C@@H]4[C@H]3CC[C@@]21C [Ethynodiol diacetate] (20 µM) | 0.966 (inactive) |
| CCN(CC)CCCC(C)Nc1ccnc2cc(Cl)ccc12 (configuration not stated) [Chloroquine diphosphate] (20 µM) | 1.1 (inactive) |
| CO[C@@]1(NC(=O)C(C(=O)O)c2ccc(O)cc2)C(=O)N2C(C(=O)O)=C(CSc3nnnn3C)CO[C@@H]21 (some centres not stated) [Moxalactam disodium salt] (20 µM) | 0.0273 (active) |
| C[C@H]1C[C@@H]2[C@H]([C@@H](O)C[C@@]3(C)[C@H]2CC[C@]3(O)C(=O)CO)[C@@]2(C)C=CC(=O)C=C12 [Methylprednisolone, 6-alpha] (20 µM) | 1.03 (inactive) |
| O=P(O)(O)C(O)(Cn1ccnc1)P(=O)(O)O [Zoledronic acid hydrate] (20 µM) | 0.973 (inactive) |
| CC(C)(C)NCC(O)CSc1nc(-c2ccc(C(N)=O)s2)cs1 (configuration not stated) [Arotinolol hydrochloride] (20 µM) | 1.01 (inactive) |
| Nc1ccc(S(=O)(=O)NC(=O)c2ccccc2)cc1 [Sulfabenzamide] (20 µM) | 1.07 (inactive) |

* * *

# System: Clostridium sporogenes DSM 1664
# measurement notes: growth (OD595) fold change vs plate DMSO controls (fold change (ratio)); higher = more growth
# setup conditions: incubation time: 27 h, anaerobic, 37 °C
Structures can show the parent of a compound that is named as a salt.
Param threshold (1) applies to growth; output label 1 when value >= threshold, label 0 when value < threshold.

| compound | category label |
| --- | --- |
| O=C(O)CNC(=O)C(CS)Cc1ccccc1 (stereo not given) [Thiorphan] (20 µM) | label 1 |
| CCn1cc(C(=O)O)c(=O)c2cnc(N3CCNCC3)nc21 [Pipemidic acid] (20 µM) | label 0 |
| Nc1nc(N)nc(-c2cc(Cl)ccc2Cl)n1 [Irsogladine maleate] (20 µM) | label 1 |
| CN1CCCCC1CCN1c2ccccc2Sc2ccc([S+](C)[O-])cc21 (stereo not given) [Mesoridazine besylate] (20 µM) | label 1 |

* * *

# Tested on: Ruminococcus gnavus DSM 108212
# measurement notes: fold change of Tryptamine concentration vs plate DMSO controls (fold change (ratio)); higher = more amine produced, active = hit call of the paper (significant change in both replicates, either direction);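 for the amine columns active = adjusted P below 0.05 in both replicates with a change the same way and a mean fold change under 0.8 or over 1.25; inactive = the rest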
# setup conditions: incubation time: 27 h, anaerobic, 37 °C
Structures can show the parent of a compound that is named as a salt.
Outcome codes: 1 (active), -1 (inactive)

| compound | category label |
| --- | --- |
| CCOC(=O)OC(C)OC(=O)[C@@H]1N2C(=O)[C@@H](NC(=O)[C@H](N)c3ccccc3)[C@H]2SC1(C)C (some centres undefined) [Bacampicillin hydrochloride] (20 µM) | 1 |
| OC[C@H](O)C(O)[C@@H](O)CO [L-Arabinitol] (50 µM) | -1 |
| CN1CCc2c(c3ccccc3n2Cc2ccccc2)C1 [Mebhydroline 1,5-naphtalenedisulfonate] (20 µM) | -1 |
| C#C[C@]1(O)CC[C@H]2[C@@H]3CCc4cc(OC)ccc4[C@H]3CC[C@@]21C [Mestranol] (20 µM) | -1 |

* * *

# Test system: Clostridium sporogenes DSM 1664
# measurement notes: growth (OD595) fold change vs plate DMSO controls (fold change (ratio)); higher = more growth
# setup conditions: incubation time: 27 h, anaerobic, 37 °C
Counter-ions that a name gives are not always drawn.

| molecule | tested target | growth |
| --- | --- | --- |
| CCCN1CCCC[C@H]1C(=O)Nc1c(C)cccc1C [Ropivacaine hydrochloride] (20 µM) | Clostridium sporogenes DSM 1664 | 1.02 |
| C#CCN(C)Cc1ccccc1 [Pargyline hydrochloride] (20 µM) | Clostridium sporogenes DSM 1664 | 0.983 |
| CC[N+](C)(CC)CCC[n+]1c(-c2ccccc2)c2cc(N)ccc2c2ccc(N)cc21 [Propidium iodide] (20 µM) | Clostridium sporogenes DSM 1664 | 1.18 |
| CO[C@H]1/C=C/O[C@@]2(C)Oc3c(C)c(O)c4c(O)c(c(/C=N/N5CCN(C6CCCC6)CC5)c(O)c4c3C2=O)NC(=O)/C(C)=C\C=C\[C@H](C)[C@H](O)[C@@H](C)[C@@H](O)[C@@H](C)[C@H](OC(C)=O)[C@@H]1C [Rifapentine] (20 µM) | Clostridium sporogenes DSM 1664 | 0.0116 |
| CCCC1O[C@@H]2C[C@H]3[C@@H]4CCC5=CC(=O)C=C[C@]5(C)[C@H]4[C@@H](O)C[C@]3(C)[C@]2(C(=O)CO)O1 (some centres undefined) [Budesonide] (20 µM) | Clostridium sporogenes DSM 1664 | 1.13 |
| CCCCOc1ccc(OCCCN2CCOCC2)cc1 [Pramoxine hydrochloride] (20 µM) | Clostridium sporogenes DSM 1664 | 1.11 |
| CC1(C)O[C@@H]2[C@@H](CO[C@@]3(COS(N)(=O)=O)OC(C)(C)O[C@@H]23)O1 [Topiramate] (20 µM) | Clostridium sporogenes DSM 1664 | 0.915 |
| N#CC(c1ccc(Cl)cc1)c1c(Cl)cc(-n2ncc(=O)[nH]c2=O)cc1Cl (centres undefined) [Diclazuril] (20 µM) | Clostridium sporogenes DSM 1664 | 0.806 |
| Cc1oncc1C(=O)Nc1ccc(C(F)(F)F)cc1 [Leflunomide] (20 µM) | Clostridium sporogenes DSM 1664 | 1.13 |
| Cc1onc(-c2c(F)cccc2Cl)c1C(=O)N[C@@H]1C(=O)N2[C@@H]1SC(C)(C)[C@@H]2C(=O)O [Flucloxacillin sodium] (20 µM) | Clostridium sporogenes DSM 1664 | 0 |
| Clc1ccc(C(Cn2ccnc2)OCc2ccsc2Cl)c(Cl)c1 (centres undefined) [Tioconazole] (20 µM) | Clostridium sporogenes DSM 1664 | 1.21 |
| CC(=O)OCC(=O)[C@@]1(O)CC[C@H]2[C@@H]3CCC4=CC(=O)CC[C@]4(C)[C@H]3[C@@H](O)C[C@@]21C [Cortisol acetate] (20 µM) | Clostridium sporogenes DSM 1664 | 1.13 |
| Cc1ccccc1C(OCCN(C)C)c1ccccc1 (centres undefined) [Orphenadrine hydrochloride] (20 µM) | Clostridium sporogenes DSM 1664 | 0.998 |
| CC(CN(C)C)CN1c2ccccc2CCc2ccccc21 (centres undefined) [Trimipramine maleate salt] (20 µM) | Clostridium sporogenes DSM 1664 | 0.87 |
